Entry source: ChEMBL document CHEMBL5724914

Experiment: The drug is tested on WLS-007 corresponding to human gut metagenome with ENA study accession number: PRJEB37062 and ENA sample accession number: ERS12561742 for biotransformation under anaerobic condition. The drug concentrations were measured over 9 timepoints collected between 0 and 24 hours of incubation by liquid-chromatography-coupled mass spectrometry (LC–MS); also: call rule not given here
Conditions: 2 µM
Endpoint name: Bacterial Biotransformation

CN1C(C(=O)Nc2ccccn2)=C(O)c2sccc2S1(=O)=O: Compound NOT metabolized
CCC(COC(=O)c1cc(OC)c(OC)c(OC)c1)(c1ccccc1)N(C)C.O=C(O)/C=C\C(=O)O (centres undefined): Compound NOT metabolized
CC(=O)CC(c1ccccc1)c1c(O)c2ccccc2oc1=O (centres undefined): Compound metabolized
CC(=O)O[C@]1(C(C)=O)CC[C@H]2[C@@H]3C=C(Cl)C4=CC(=O)[C@@H]5C[C@@H]5[C@]4(C)[C@H]3CC[C@@]21C [CYPROTERONE ACETATE]: Compound metabolized
